The compounds listed here are annotated with their BEI (%) Mean.
- System: sandwich-cultured PXB-cells
- run conditions: human, 20 min, 1 μM

smiles representation	BEI (%) Mean
C[C@H]1O[C@@H](O[C@H]2[C@@H](O)C[C@H](O[C@H]3[C@@H](O)C[C@H](O[C@H]4CC[C@@]5(C)[C@H](CC[C@@H]6[C@@H]5C[C@@H](O)[C@]5(C)[C@@H](C7=CC(=O)OC7)CC[C@]65O)C4)O[C@@H]3C)O[C@@H]2C)C[C@H](O)[C@@H]1O	37.1
CC[C@H]1OC(=O)[C@H](C)[C@@H](O[C@H]2C[C@@](C)(OC)[C@@H](O)[C@H](C)O2)[C@H](C)[C@@H](O[C@@H]2O[C@H](C)C[C@H](N(C)C)[C@H]2O)[C@](C)(O)C[C@@H](C)C(=O)[C@H](C)[C@@H](O)[C@]1(C)O	54.8
